B1: ATE1 (parent)
chain: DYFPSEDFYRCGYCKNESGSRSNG

# Variants of: B1
# experiment-description: protein stability index of a GFP-peptide fusion (GPS, HEK-293T) (PSI 1-6); higher = more stable;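 note: lentivirally expressed fusions sorted by FACS into six bins by GFP to DsRed ratio, PSI derived from sequencing read proportions per bin multiplied by bin number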
# experimental-conditions: c terminus: a fixed tail appended
Record true (1) whenever protein stability index is at 2 or higher; record false (0) when lower.

Worked examples follow.
DYFPSEDFYRCGYCKNELGSRSNG [S18L]; false (0)
DYFPSEDFYRCGYCKNESMSRSNG [G19M]; false (0)
DYFPSEDFYRFGYCKNESGSRSNG [C11F]; true (1)
DYFPSEDFYRCGYCFNESGSRSNG [K15F]; true (1)
RYFPSEDFYRCGYCKNESGSRSNG [D1R]; false (0)

Please look at the following variant next.
Request: Test whether the variant DYFPSEDFYRCGYCKNESGGRSNG [S20G] records protein stability index of 2 or higher.
Response: true (1)
